biological target: T1, soluble EGFR (human epithelial cell growth factor receptor 1, Her1) (human, UniProt P00533 25-645, limits assumed); experiment: ITC, 50 uM Fv titrated into 5 uM soluble EGFR
T1 construct: The metal chelate purification implies a His tag, but none is described; also called target antigen
Entries and their ΔG
Numeric answer only, unit kcal/mol assumed.

Worked cases, answers included:
binder: h528Fv 5.0.0 (other) VH: QVQLVQSGAEVKKPGASVKVSCKASGYTFTSYWMHWVRQAPGQGLEWMGNIWPGSGGTNYAEKFKNRVTMTRDTSISTAYMELSRLRSDDTAVYYCARSGGPYFFDYWGQGTLVTVSS VL: DIVMTQSPLSLPVTPGEPASISCRSSQNIVHNNGITYLEWYLQKPGQSPQLLIYKVSDRFSGVPDRFSGSGSGTDFTLKISRVEAEDVGVYYCFQGSHIPPTFGQGTKVEIKR
measureName: ΔG
observed: -11.2
//
binder: h528Fv 5.73.0 (other) VH: QVQLVQSGAEVKKPGASVKVSCKASGYTFTSYWMHWVRQAPGQGLEWMGNIWPGNGGTNYAEQFKQRVTMTRDTSISTAYMELSRLRSDDTAVYYCARSGGPYFFDYWGQGTLVTVSS VL: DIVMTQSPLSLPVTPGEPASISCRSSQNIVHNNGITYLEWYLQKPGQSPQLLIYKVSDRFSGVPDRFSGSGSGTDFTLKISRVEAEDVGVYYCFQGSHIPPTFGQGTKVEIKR
measureName: ΔG
observed: -11.9
//
binder: h528Fv 5.11.T (other) VH: QVQLVQSGAEVKKPGASVKVSCKASGYTFTSYWMHWVRQAPGQGLEWMGNIWPGTGGTNYAEKFQQRVTMTRDTSISTAYMELSRLRSDDTAVYYCTRSGGPYFFDYWGQGTLVTVSS VL: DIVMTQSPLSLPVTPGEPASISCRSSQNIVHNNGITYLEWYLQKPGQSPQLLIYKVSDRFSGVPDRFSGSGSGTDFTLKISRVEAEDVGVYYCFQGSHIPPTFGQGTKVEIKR
measureName: ΔG
observed: -11.9

Read off the recorded ΔG for h528Fv 5.12.0 (other) VH: QVQLVQSGAEVKKPGASVKVSCKASGYTFTSYWMHWVRQAPGQGLEWMGNIWPGKGGTNYAEKFQKRVTMTRDTSISTAYMELSRLRSDDTAVYYCARSGGPYFFDYWGQGTLVTVSS VL: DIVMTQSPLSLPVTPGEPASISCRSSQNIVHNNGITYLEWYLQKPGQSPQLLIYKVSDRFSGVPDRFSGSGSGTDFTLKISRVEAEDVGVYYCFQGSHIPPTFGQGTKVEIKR
-11.8

Give a short answer stating reported ΔG for h528Fv 5.98.0 (other) VH: QVQLVQSGAEVKKPGASVKVSCKASGYTFTSYWMHWVRQAPGQGLEWMGNIWPGQGGTNYAEKFKSRVTMTRDTSISTAYMELSRLRSDDTAVYYCARSGGPYFFDYWGQGTLVTVSS VL: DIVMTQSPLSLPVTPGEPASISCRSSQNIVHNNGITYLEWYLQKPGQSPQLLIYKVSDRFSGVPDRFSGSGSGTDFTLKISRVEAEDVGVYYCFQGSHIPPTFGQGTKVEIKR .
-11.9

Answer with reported ΔG of h528Fv WT (other, Fv fragment: VH and VL co-expressed in E. coli BL21; Purified by metal chelate chromatography; the tag is not described; also called wild type humanized Fv) VH: QVQLVQSGAEVKKPGASVKVSCKASGYTFTSYWMHWVRQAPGQGLEWMGNIYPGSGGTNYAEKFKNRVTMTRDTSISTAYMELSRLRSDDTAVYYCARSGGPYFFDYWGQGTLVTVSS VL: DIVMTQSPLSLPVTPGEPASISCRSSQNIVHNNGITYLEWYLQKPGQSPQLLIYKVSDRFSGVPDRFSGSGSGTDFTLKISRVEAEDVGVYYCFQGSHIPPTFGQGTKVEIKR
-9.92
